# Test system: mice (Swiss strain)
# protocolSummary: Acute toxicity, LD50 by oral route in mice (class A derivatives)
# Type: in vivo
# experimentalConditions: mouse, suspension in 2 % carboxymethylcellulose, observation 7 days
Below, each entry is listed with its recorded LD50 per os.

{"compound": "CCCCCCCOC(=O)[C@@H](NC(=O)Oc1ccc2c(c1)[C@]1(C)CCN(C)[C@@H]1N2C)[C@@H](C)CC [MGS102]", "LD50 per os": "358.3 ± 18.83 mg/kg"}
{"compound": "CC[C@H](C)[C@H](NC(=O)Oc1ccc2c(c1)[C@]1(C)CCN(C)[C@@H]1N2C)C(=O)O [MGS101]", "LD50 per os": "332.8 ± 6.20 mg/kg"}
{"compound": "CC(C)[C@H](NC(=O)Oc1ccc2c(c1)[C@]1(C)CCN(C)[C@@H]1N2C)C(=O)O [MGS104]", "LD50 per os": "423.0 ± 35.21 mg/kg"}
{"compound": "CN1CC[C@@]2(C)c3cc(OC(=O)NCC(=O)O)ccc3N(C)[C@@H]12 [MGS105]", "LD50 per os": "345.6 ± 24.86 mg/kg"}
{"compound": "CC(C)C[C@H](NC(=O)Oc1ccc2c(c1)[C@]1(C)CCN(C)[C@@H]1N2C)C(=O)O [MGS103]", "LD50 per os": "412.6 ± 46.34 mg/kg"}

====

# protocolSummary: Acute toxicity, LD50 by oral route in mice (class D derivatives)
# Format: in vivo
# experimentalConditions: both sexes, Swiss, in vivo, mouse, suspension in 2 % carboxymethylcellulose, observation 7 days, read-out: LD50 per os
recordedMetric: LD50 at 7 days

{"compound": "CNC(=O)Oc1ccc2c(c1)[C@]1(C)CCN(C)[C@@H]1N2C [Physostigmine, physostigmine, reference compound]", "observedResult": "4.12 mg/kg"}

====

# System: mice (Swiss strain)
# protocolSummary: Acute toxicity, LD50 by oral route in mice (class E derivatives)
# Assay type: in vivo
# experimentalConditions: mouse, suspension in 2 % carboxymethylcellulose, observation 7 days
Below, each entry is listed with its recorded LD50 per os.
recordedMetric: LD50 per os (mg/kg)

{"molecule": "CN1CC[C@@]2(C)c3cc(OC(=O)NCCCCCCCCNC(=O)Oc4ccc5c(c4)[C@]4(C)CCN(C)[C@@H]4N5C)ccc3N(C)[C@@H]12 [MS001]", "recordedMetric": "LD50 per os", "unitSymbol": "mg/kg", "observedResult": 51.40}
{"molecule": "CN1CC[C@@]2(C)c3cc(OC(=O)NCCCCCNC(=O)Oc4ccc5c(c4)[C@]4(C)CCN(C)[C@@H]4N5C)ccc3N(C)[C@@H]12 [MS007]", "recordedMetric": "LD50 per os", "unitSymbol": "mg/kg", "observedResult": 64.26}
{"molecule": "CN1CC[C@@]2(C)c3cc(OC(=O)NCCCCCCCCNC(=O)Oc4ccc5c(c4)[C@]4(C)CCN(C)[C@@H]4N5C)ccc3N(C)[C@@H]12 [MS002]", "recordedMetric": "LD50 per os", "unitSymbol": "mg/kg", "observedResult": 48.98}
{"molecule": "CN1CC[C@@]2(C)c3cc(OC(=O)NCCCCCCNC(=O)Oc4ccc5c(c4)[C@]4(C)CCN(C)[C@@H]4N5C)ccc3N(C)[C@@H]12 [MS010]", "recordedMetric": "LD50 per os", "unitSymbol": "mg/kg", "observedResult": 50.65}
{"molecule": "CN1CC[C@@]2(C)c3cc(OC(=O)NCCCCCCCNC(=O)Oc4ccc5c(c4)[C@]4(C)CCN(C)[C@@H]4N5C)ccc3N(C)[C@@H]12 [MS011]", "recordedMetric": "LD50 per os", "unitSymbol": "mg/kg", "observedResult": 63.31}
